- experimental.protocol: Oral bioavailability in dog at 1 mg/kg
- Type: ADME, organism-based, Canis lupus familiaris
- recorded.conditions: in vivo
property: bioavailability (%)
Return type: number; implicit unit %.

Give the value of bioavailability reported for the following: CC(C)CC[C@H](c1ccc(C(F)(F)F)nc1)N1CC[C@@H](CC(=O)[O-])C[C@H]1c1ccc(C(F)(F)F)cc1.[Na+]
72

###

- experimental.protocol: Volume of distribution at steady state in rat at 1 mg/kg, iv and 2 mg/kg, po
- Assay type: ADME, organism-based
- recorded.conditions: in vivo, read-out: Vdss
property: Vd (L/kg)
Lab book: enter the figure in L/kg, no units written.

Answer with the recorded Vd of CC(C)CC[C@H](c1ncc(C(F)(F)F)cn1)N1CC[C@@H](CC(=O)[O-])C[C@H]1c1ccc(C(F)(F)F)cc1.[Na+] only.
3

# credit: ChEMBL document CHEMBL1159115
